The reported measurements were obtained from paper PMC10631261.

- measured-target: AspH (Homo sapiens)
- Sequence (Q12797 315-758): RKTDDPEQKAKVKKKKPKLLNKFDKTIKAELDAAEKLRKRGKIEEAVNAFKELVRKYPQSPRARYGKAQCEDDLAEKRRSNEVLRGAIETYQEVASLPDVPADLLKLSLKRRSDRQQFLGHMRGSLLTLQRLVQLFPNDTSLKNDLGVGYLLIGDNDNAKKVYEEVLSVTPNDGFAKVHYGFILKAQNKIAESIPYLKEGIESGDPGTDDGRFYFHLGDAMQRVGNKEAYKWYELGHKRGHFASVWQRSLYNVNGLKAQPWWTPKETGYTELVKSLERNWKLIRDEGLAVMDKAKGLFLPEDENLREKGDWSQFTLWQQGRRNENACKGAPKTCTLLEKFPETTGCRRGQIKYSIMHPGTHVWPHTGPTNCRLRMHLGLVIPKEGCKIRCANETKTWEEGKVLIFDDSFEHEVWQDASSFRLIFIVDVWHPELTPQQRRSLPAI
- experiment-description: biochemical
property-measured: IC50 (µM)
One number for each entry, in µM.

Solved cases below.
Query O=C(O)Cc1csc(=NC(=O)C2CCN(S(=O)(=O)C3CCCC3)C2)n1O (stereo not shown) on AspH (Homo sapiens); IC50 returned: 35.5

Query O=C(O)Cc1cs/c(=N\C(=O)CCS(=O)(=O)c2ccccc2)n1O on AspH (Homo sapiens); IC50 returned: 33

Let us examine a further case.
Query O=C(O)CCc1cs/c(=N\C(=O)CS(=O)(=O)c2ccccc2)n1O on AspH (Homo sapiens); IC50 returned: 47.3
